Experiment: inhibitors of TNFa-induced NFkB p65 translocation, primary screen, imaging, HUVEC, MLSMR starter and 10KST1 sets (AID 438);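 note: compound added about 3h40 before a 20 min TNFalpha stimulation; signal is the nuclear over cytoplasmic p65 intensity ratio per well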
Details: HUVEC TNFa-induced p65 nuclear translocation; at 2 µM, stronger effect = higher value, 0% TNFa-plus-vehicle, 100% no-TNFa wells
measurement-label: inhibition (%)
Quick note: give the figure in %, leave out the unit.

Give the measured inhibition of Cc1cc(=O)n(CCC(=O)O)c2ccccc12 . -2.6

---

Target: Dual specificity protein phosphatase 6 (Homo sapiens)
Assay: DUSP6 inhibitors restoring Erk phosphorylation by chemical complementation, primary imaging in DUSP6-transfected HeLa (AID 609);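 for inhibition: phospho-Erk level distribution per well compared with pooled transfected vehicle control wells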
Details: HeLa MKP-3 transfected, phospho-Erk imaging KS statistic; at 10 µM; stronger effect = higher value; cells stimulated with TPA for 15 min
measurement-label: inhibition (%)
Quick note: give the figure in %, leave out the unit.

* COc1ccc(C2CC(c3ccc(C)cc3)Nc3nc(N)nn32)cc1 (stereo not drawn) | 9.82
* N#Cc1nc(-c2cccs2)oc1NCc1ccccc1Cl | 1.63
* N#Cc1nc(COc2ccccc2F)oc1NCCCn1ccnc1 | -0.624
* CN1CCc2c(n(CC(O)CN3C(=O)c4ccccc4S3(=O)=O)c3ccccc23)C1=O (stereo not drawn) | 6.04
* Cn1c(=O)n(CC(=O)Nc2ccccc2)c2ccccc21 | 22.3
* CCOc1ccc(NC(=O)c2nn(C)cc2Br)cc1 | -4.27

Give the measured inhibition of CC(=O)Nc1ccc(NCC(O)COc2ccccc2)cc1 (stereo not drawn) . -2.59

What do we get for CCC(NC(=O)NC1=NCCS1)(C(F)(F)F)C(F)(F)F ? 20.2

What do we get for O=C(C1=C(O)C(=O)N(CCCN2CCOCC2)C1c1ccccn1)c1cc2ccccc2o1 (stereo not drawn) ? 12.7

What do we get for Cn1c(=O)[nH]c(=O)c2c1nc(N1CCN(c3cccc(Cl)c3)CC1)n2CCCc1ccccc1 ? 24

What do we get for Cc1cc(=O)n(CCC(=O)O)c2ccccc12 ? 5.95

What do we get for Cc1ccccc1N1C(=O)C2ON(c3ccccc3)C(c3cccnc3)C2C1=O (stereo not drawn) ? 7.7

What do we get for COc1ccc(-n2ncc3c(Nc4cccc(C)c4)ncnc32)cc1 ? 11.4

What do we get for CCOC(=O)c1c(C)n(C)c2ccc(O)c(CN3CCCCC3)c12 ? -15.1

What do we get for COc1ccc2nc(SCC(=O)O)nc(C)c2c1 ? -2.29

What do we get for COC(=O)c1[nH]c2cc(OC)ccc2c1NC(=O)CN1CCN(c2cccc(C)c2)C(C)C1 (stereo not drawn) ? -1.12

What do we get for CCOc1ccc2nc(NC(NC(C)=O)(C(=O)OC)C(F)(F)F)sc2c1 (stereo not drawn) ? -4.59

What do we get for CCC(NC(=O)Nc1nccs1)(C(F)(F)F)C(F)(F)F ? -11.4

What do we get for COc1cccc(Cn2c(NCc3ccco3)nc3c2c(=O)n(C)c(=O)n3C)c1 ? 27.8

What do we get for CCN1CCc2c(C#N)c(NCc3ccccc3)nc(N(CC)CC)c2C1 ? 3.49

What do we get for CCN(CC)C(=O)C1CCN(c2ncnc3c2cnn3-c2ccc(C)cc2C)CC1 ? 11.4

What do we get for O=c1c(-c2ccc(Cl)cc2)[n+]([O-])c2ccccc2n1O ? 15.9

What do we get for CN(C)CCOC(=O)Cc1ccc(Cl)cc1 ? 12.8

---

Assay: DUSP6 inhibitors restoring Erk phosphorylation by chemical complementation, primary imaging in DUSP6-transfected HeLa (AID 609)
Conditions: HeLa MKP-3 transfected, phospho-Erk imaging KS statistic; measured here: cell density z-score; at 10 µM; cells stimulated with TPA for 15 min
# if value of z-score reaches 0.4, tag true (1); if it stays below, tag false (0)

Reference set, count: 4
- Cn1c(=O)c2c(nc(Br)n2Cc2ccc3ccccc3c2)n(C)c1=O: false (0)
- Cn1c(N)c(C#N)c2c(c1=S)CSC(C)(C)C2: true (1)
- Cn1c(=O)[nH]c(=O)c2c1nc(Br)n2CCSc1nnnn1-c1ccccc1: false (0)
- CC(C)CCNc1nc2c(cc1C#N)COC(C)(C)C2: true (1)

Does the reported z-score for CCN(CC)CCNc1ncnc2c1[nH]c1ccc(OC)cc12 fall at or above the 0.4 mark? true (1)

What do we get for CC(O)CNc1nc2c(c(=O)n(C)c(=O)n2C)n1CCc1ccccc1 (stereo unspecified) ? true (1)

---

Test: inhibitors of E-selectin induction by TNFa, primary screen, imaging, HUVEC, immunofluorescence, MLSMR starter and 10KST1 sets (AID 487);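 note: 100% = median nuclei count of all wells on the same plate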
Details: HUVEC TNFalpha-induced E-selectin immunofluorescence imaging, at 2 µM; measured here: cell number, toxicity
nuclei count values for the molecules below.
Quick note: give the figure in %, leave out the unit.

• CN=C(c1ccco1)n1c(=S)nc(-c2ccco2)n(C)c1=S = 126
• CCOC(=O)CSc1nc(N)c(C(=O)Nc2ccc(N(C)C)cc2)s1 = 188
• COc1ccc(C(O)C(CN2CCOCC2)c2ccccc2)cc1F (centres undefined) = 104
• Cc1csc(SCCn2c(Br)nc3c2c(=O)[nH]c(=O)n3C)n1 = 180
• CCC(C)(NC(=O)CNC(C)=O)C(=O)NC1CCCCC1 (centres undefined) = 116
• CCOc1nc(OCC)nc(N2CCC(C)CC2)n1 = 138
• COC(=O)CCc1c(C)[nH]c(=S)[nH]c1=O = 111
• O=C1c2ccccc2S(=O)(=O)N1Cc1nnc(-c2ccccc2Br)o1 = 99.5

Give the measured nuclei count of COc1ccc(C2/C(=C(\O)c3ccc4c(c3)OCCO4)C(=O)C(=O)N2CCCN(C)C)cc1 (centres undefined) . 131

What do we get for CCC1(C(=O)OC)NC(c2cccc(F)c2)C2C(=O)N(C)C(=O)C21 (centres undefined) ? 112

What do we get for CCCCN(C(=O)c1ccc(Cl)cc1)C1CC2CCC(C1)N2C (centres undefined) ? 116

What do we get for CC(=O)N(C(C)=O)c1c(C#N)c(C)n(-c2ccccc2)c1C(=O)c1ccccc1 ? 110

---

fluorescence slope values for the compounds below.
Biological target: Voltage-gated potassium channel subunit beta-2 (Rattus norvegicus) (UniProt P62483)
Sequence (P62483 whole entry, looked up): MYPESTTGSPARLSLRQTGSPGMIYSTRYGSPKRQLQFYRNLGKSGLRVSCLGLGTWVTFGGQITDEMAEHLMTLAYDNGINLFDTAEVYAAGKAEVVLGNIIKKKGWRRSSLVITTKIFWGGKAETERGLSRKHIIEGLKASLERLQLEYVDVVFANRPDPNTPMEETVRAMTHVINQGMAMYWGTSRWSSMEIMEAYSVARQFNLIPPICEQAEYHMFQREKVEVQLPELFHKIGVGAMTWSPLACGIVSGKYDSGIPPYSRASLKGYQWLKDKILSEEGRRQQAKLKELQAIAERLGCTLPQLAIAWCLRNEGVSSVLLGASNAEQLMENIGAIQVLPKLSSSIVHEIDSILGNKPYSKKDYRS
Test: KvBeta enzyme negative modulators, primary screen, biochemical, NADPH fluorescence (AID 622);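 note: slope of raw intensity against log time taken from 70 to 1610 s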
Conditions: recombinant KvBeta, 4-cyanobenzaldehyde reduction, at 10 µM, stronger effect = higher value
# print the numeric value only

Example compounds with recorded fluorescence slope:
- COc1ccc(Br)cc1S(=O)(=O)N1CC(C)OC(C)C1 (stereo unspecified): -0.429
- Cc1ccc(CNc2cc(-c3nn4c(C)nnc4s3)ccc2C)s1: -0.444
- C=CCOn1c(=O)c(-c2ccc(OC)cc2)[n+]([O-])c2ccccc21: -0.416
- CC1(C)CC(=O)c2cnc(NC(=O)Cc3ccc(Cl)cc3)nc2C1: -0.485
- Cc1cc(NC(=O)CSc2nccn2-c2ccc(F)cc2)no1: -0.6
- COc1ccc(-c2nnn(CC(=O)c3ccc4c(c3)OCCO4)n2)cc1OC: -0.48

Give the measured fluorescence slope of COc1ccc(NC(=O)CSc2c(C)nn(-c3nnc(C)c(=O)[nH]3)c2C)cc1 . -0.537

---

Assay: inhibitors of Sendai virus-induced IRF3 signaling, primary screen, TLR/RLR signaling modifier project, cell-based, Sendai virus stimulus, luciferase, 10K MLSCN set (AID 602276);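 note: firefly luciferase from ISG56 promoter only with Renilla not read in this screen; 0% = Sendai virus plus DMSO and 100% = medium plus DMSO without virus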
Conditions: HEK293 RL24 IRF3 luciferase reporter, at 10 µM, stronger effect = higher value
measurement-label: inhibition (%)
Quick note: give the figure in %, leave out the unit.

Example compounds with recorded inhibition:
* COc1ccccc1N1CCN(C(=O)C(Cc2ccccc2)NC(=O)C2CCCCC2)CC1 (stereo unspecified) | 0.074
* CC1CCc2nn(CC(=O)NCCN3CCCCC3C)cc2C1 (stereo unspecified) | 7.09
* Cc1nn(C)c(C)c1CN(C)C(=O)c1cc2nc(-c3ccco3)cc(C(F)(F)F)n2n1 | 1.09
* C=CCN1C(=O)C2(/C(=C(\O)c3ccc4c(c3)OCCO4)C(=O)C(=O)N2CCCOC)c2ccccc21 (stereo unspecified) | 20.5
* Cc1ccc(O)c(C(CC(=O)N2CCCC2)c2ccccc2)c1 (stereo unspecified) | 3.98

Give the measured inhibition of CCOC(=O)N1CCN(C(=O)CSCC(=O)Nc2nc(-c3ccc(OC)cc3)cs2)CC1 . -14.1

What do we get for COc1cc(OC)cc(C(=O)N2c3ccc(F)cc3CCC2C)c1 (stereo unspecified) ? 12.9

What do we get for O=C(Cc1ccccc1)Nc1ccc(CN2CCOCC2)cc1 ? -34

What do we get for COC(=O)c1c(O)ccc(Oc2ccccc2)c1C(=O)OC ? 15.3

What do we get for CC(C)=CCCC(C)CN(C)CCc1ccccn1 (stereo unspecified) ? -1.84

What do we get for COc1ccc(OC)c(-c2nc3c(C)n[nH]c(=O)c3[nH]2)c1 ? 8.37
